# credit: patent US20200255503A1

- Tested on: natural Fel d1 (cat (Felis domesticus)) (UniProt P30438)
- Experimental protocol: SPR, mAb captured, nFel d1 injected, 25 C
Result type: t1/2
Please state the number and follow it with the unit.

Incoming: I'd like to know its t1/2. The binder in question is H2M1237N (antibody, mouse IgG2, V domains shown) VH: QVVLVESGGGVVQPGRSLRLSCAASGFTFSSYGMHWVRQAPGKGLEWVAVIWYDGSIKYYADSVKGRFTISRDNSNNTIYLQMNSLRAEDTAVYYCARALIPVAGTDPIFGYWGQGTLVTVSS VL: DIQMTQSPSTLSASVGDRVTITCRASQSVSSWLAWYQQKPGKAPKLLIFKTSGLESGVPFRFSGSGSGTEFTLTISSLQPDDFATYYCQQYNTYSPTFGQGTKVEIK
Outgoing: 42 min
